Target: human LXRβ (Homo sapiens)
Sequence (P55055 222-460 limits assumed): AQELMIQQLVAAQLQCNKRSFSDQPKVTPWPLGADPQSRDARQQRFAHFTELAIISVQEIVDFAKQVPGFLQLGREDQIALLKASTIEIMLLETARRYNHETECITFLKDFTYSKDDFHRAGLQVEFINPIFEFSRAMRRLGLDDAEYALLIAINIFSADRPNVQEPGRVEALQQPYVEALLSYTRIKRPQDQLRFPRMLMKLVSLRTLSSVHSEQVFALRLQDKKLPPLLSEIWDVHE
Test: Assay for Transcriptional Activity of LXRβ (GAL4-hLXRβ LBD luciferase reporter, transient transfection)
Details: increase of transcriptional activity of LXRβ; HEK293 cells transfected with pFA-hLXRβ/GAL4 and pUAS; 24 hours; average of three independent tests
Kindly state EC50 for each of the entries shown.
One number for each entry, in nM.

C[S+]([O-])c1ccc(-c2cccc(C3CC(C(F)(F)C(F)(F)F)=NN3c3ccc(F)cc3F)c2)cc1 (stereo not drawn) [Example 52] ... 546
CC(=O)c1ccc(-c2ccc(C3CC(C(O)(C(F)(F)F)C(F)(F)F)=NN3c3ccccc3Cl)c(F)c2)cc1 (stereo not drawn) [Example 341] ... 353
COc1cccc(OC)c1-c1ccc(C2CC(C(O)(C(F)(F)F)C(F)(F)F)=NN2c2ccccc2Cl)cc1 (stereo not drawn) [Example 245] ... 2430
CCOc1ccc(-c2ccc(C3CC(C(O)(C(F)(F)F)C(F)(F)F)=NN3c3ccccc3Cl)cc2)cn1 (stereo not drawn) [Example 269] ... 7930
Oc1cccc(-c2ccc(C3CC(C(O)(C(F)(F)F)C(F)(F)F)=NN3c3ccccc3Cl)cc2)c1 (stereo not drawn) [Example 252] ... 2350
CS(=O)(=O)N1CCN(c2ccc(F)c(C3CC(C(F)(F)C(F)(F)F)=NN3c3ccc(F)cc3F)c2)CC1 (stereo not drawn) [Example 145] ... 885
CN(C)S(=O)(=O)N1CC=C(c2ccc(C3CC(C(O)(C(F)(F)F)C(F)(F)F)=NN3c3ccc(F)cc3F)cc2)CC1 (stereo not drawn) [Example 401] ... 785
N#Cc1ccc(-c2cccc(C3CC(C(F)(F)C(F)(F)F)=NN3c3ccc(F)cc3F)c2)cn1 (stereo not drawn) [Example 78] ... 2500

Consider the following items and state reported EC50 for each.
1. O=C(Cc1ccccc1)N1CC=C(c2cccc(C3CC(C(O)(C(F)(F)F)C(F)(F)F)=NN3c3ccccc3Cl)c2)CC1 (stereo not drawn) [Example 236]
2. COc1ccc(-c2ccc(C3CC(C(O)(C(F)(F)F)C(F)(F)F)=NN3c3ccccc3Cl)cc2)cc1 (stereo not drawn) [Example 242]
3. CS(=O)(=O)c1ccc(-c2cc(C3CC(C(F)(F)C(F)(F)F)=NN3c3ccc(F)cc3F)ccn2)cn1 (stereo not drawn) [Example 189]
4. CC(C)CS(=O)(=O)N1CC=C(c2ccc(C3CC(C(O)(C(F)(F)F)C(F)(F)F)=NN3c3ccccc3Cl)cc2)CC1 (stereo not drawn) [Example 302]
5. CS(=O)(=O)c1ccc(-c2ccc(C3CC(C(O)(C(F)(F)F)C(F)(F)F)=NN3c3ccccc3Cl)cc2F)cc1 (stereo not drawn) [Example 365]

Response given:
1: 49; 2: 14100; 3: 2720; 4: 849; 5: 283

Consider the following items and state reported EC50 for each.
1. OC(C1=NN(c2ccccc2Cl)C(c2ccc(-c3cncnc3)cc2)C1)(C(F)(F)F)C(F)(F)F (stereo not drawn) [Example 258]
2. O=C(CC1CCCC1)N1CC=C(c2cccc(C3CC(C(O)(C(F)(F)F)C(F)(F)F)=NN3c3ccccc3Cl)c2)CC1 (stereo not drawn) [Example 232]
3. CS(=O)(=O)N1CC=C(c2cc(C3CC(C(F)(F)C(F)(F)F)=NN3c3ccc(F)cc3F)ccn2)CC1 (stereo not drawn) [Example 191]
4. CS(=O)(=O)N1CC=C(c2ccc(F)c(C3CC(C(F)(F)C(F)(F)F)=NN3c3ccc(F)cc3F)c2)CC1 (stereo not drawn) [Example 149]
5. CSc1ccc(-c2cccc(C3CC(C(F)(F)C(F)(F)F)=NN3c3ccc(F)cc3F)c2)cn1 (stereo not drawn) [Example 77]
6. CN(C)S(=O)(=O)N1CC=C(c2ccc(C3CC(C(O)(C(F)(F)F)C(F)(F)F)=NN3c3ccccc3Cl)cc2)CC1 (stereo not drawn) [Example 305]

Response given:
[302, 70, 6700, 303, 7180, 304]

Consider the following items and state reported EC50 for each.
1. CNCCCS(=O)(=O)c1cccc(-c2ccc(C3CC(C(O)(C(F)(F)F)C(F)(F)F)=NN3c3ccc(F)cc3F)cc2)c1 (stereo not drawn) [Example 412]
2. CSc1cccc(-c2ccnc(C3CC(C(F)(F)C(F)(F)F)=NN3c3ccc(F)cc3F)c2)c1 (stereo not drawn) [Example 172]

Response given:
[727, 1020]
